- System: Fer (mouse)
- assay-text: phosphorylation enrichment, bacterial display (enrichment ratio); higher = better substrate or ligand; peptides without Tyr show the background;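 further: 11-residue human phosphosite peptides and single-mutation variants displayed on the E. coli surface, counted by deep sequencing, each peptide's frequency after selection divided by its frequency in the unselected input library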;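 further: frequency after pTyr selection over input frequency; kinase dosed for 20-30% of maximal phosphorylation in three min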
Below: a set of entries, each annotated with reported phosphorylation enrichment.
Form: value (number only, do not type unit).

sequence-chain	study-target	observed
ISMAGYSIPEL [EDAR_Y406_T403M]	Fer (mouse)	0.455

Now, please, on to the next sequence.
Field request: phosphorylation enrichment | item: KAIMTYVFSFF [ACTN4_Y260_S262F_YF]
0.454

====

Below: a set of entries, each annotated with reported phosphorylation enrichment.
- study-target: Fes (UniProt P07332)
- Sequence (P07332 whole entry, looked up): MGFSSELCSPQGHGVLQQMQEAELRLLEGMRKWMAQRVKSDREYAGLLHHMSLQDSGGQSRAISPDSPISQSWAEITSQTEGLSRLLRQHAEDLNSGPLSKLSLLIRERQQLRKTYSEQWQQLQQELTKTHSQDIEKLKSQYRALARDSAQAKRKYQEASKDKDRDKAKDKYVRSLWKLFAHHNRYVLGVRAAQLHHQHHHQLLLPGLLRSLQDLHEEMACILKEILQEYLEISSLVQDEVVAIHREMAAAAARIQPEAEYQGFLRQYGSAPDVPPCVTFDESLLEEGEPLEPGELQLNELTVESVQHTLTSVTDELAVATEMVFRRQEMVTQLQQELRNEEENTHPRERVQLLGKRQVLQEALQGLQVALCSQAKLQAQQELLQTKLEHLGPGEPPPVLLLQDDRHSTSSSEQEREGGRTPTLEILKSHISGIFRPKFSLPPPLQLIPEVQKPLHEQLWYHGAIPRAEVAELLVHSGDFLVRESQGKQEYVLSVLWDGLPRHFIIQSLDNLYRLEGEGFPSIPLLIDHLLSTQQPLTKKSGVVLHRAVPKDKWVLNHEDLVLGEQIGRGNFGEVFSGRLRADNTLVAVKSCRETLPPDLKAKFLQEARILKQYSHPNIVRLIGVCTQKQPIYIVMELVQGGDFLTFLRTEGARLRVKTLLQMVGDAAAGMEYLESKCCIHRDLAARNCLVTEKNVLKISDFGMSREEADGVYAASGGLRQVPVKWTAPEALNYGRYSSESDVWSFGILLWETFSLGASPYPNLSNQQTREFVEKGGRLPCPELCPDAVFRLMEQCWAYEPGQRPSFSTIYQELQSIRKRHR
- assay-text: phosphorylation enrichment, bacterial display (enrichment ratio); higher = better substrate or ligand; peptides without Tyr show the background
Form: value (number only, do not type unit).

sequence-chain	observed
VLSIDYFFPPQ [AR_Y552_P549S_YF]	1.12
SFNNKYGMVAQ [APOB_Y276_K273N_YF]	0.51
TFYQMYDKGLV [IARS2_Y231]	0.916
AFHGEYIPTVF [RAC2_Y32_P29H]	0.809
LSSNLYYRWLT [CNGA3_Y168_P163L]	3.38

Now, please, on to the next sequence.
Field request: phosphorylation enrichment | item: RGKLFYQEVPA [METTL11B_Y76_A72G]
1.05

====

- System: AncSZ
- assay-text: phosphorylation enrichment, bacterial display (enrichment ratio); higher = better substrate or ligand; peptides without Tyr show the background
Decision: phosphorylation enrichment compared against 0.8; not below it gives true (1), below it gives false (0).

Worked set:
sequence-chain	cat
AKNKDYMSFIR [GNE_Y197_I200F]	false (0)
IFSGIYFKPES [L2HGDH_Y102_H98Y_YF]	true (1)
KLQKFYRQNPD [EHHADH_Y683_YF]	false (0)
WEPFGYAVTRC [PTPRT_Y412]	true (1)
FALAEYTEVKT [ALDH1A3_Y497_YF]	true (1)

Query sequence follows.
Is phosphorylation enrichment at least 0.8? Consider HGEAYYSEVKA [PAK5_Y182_P187A]
true (1)

====

- study-target: Fyn (UniProt P06241)
- Sequence (P06241 whole entry, looked up): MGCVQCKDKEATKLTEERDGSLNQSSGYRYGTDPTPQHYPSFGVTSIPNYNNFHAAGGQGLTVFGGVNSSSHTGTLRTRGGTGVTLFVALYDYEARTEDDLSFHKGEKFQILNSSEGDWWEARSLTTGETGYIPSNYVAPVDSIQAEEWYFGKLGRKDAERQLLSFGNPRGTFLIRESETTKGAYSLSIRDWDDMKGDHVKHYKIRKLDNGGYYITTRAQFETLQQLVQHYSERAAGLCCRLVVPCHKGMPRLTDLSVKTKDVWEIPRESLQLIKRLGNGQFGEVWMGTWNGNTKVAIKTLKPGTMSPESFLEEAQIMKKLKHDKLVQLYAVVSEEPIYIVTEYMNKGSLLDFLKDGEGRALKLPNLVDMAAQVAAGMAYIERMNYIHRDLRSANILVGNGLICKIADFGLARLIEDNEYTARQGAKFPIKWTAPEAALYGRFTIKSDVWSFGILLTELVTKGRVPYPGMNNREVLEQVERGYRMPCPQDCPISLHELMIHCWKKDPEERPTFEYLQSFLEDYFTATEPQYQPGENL
- assay-text: phosphorylation enrichment, bacterial display (enrichment ratio); higher = better substrate or ligand; peptides without Tyr show the background
Below: a set of entries, each annotated with reported phosphorylation enrichment.
Form: value (number only, do not type unit).

Please review the entries below; each comes with its answer.
sequence-chain	observed
KSEFAYEIFDK [MYOM2_Y1024_L1022F]	0.797
ETAENYLGFTA [HSPA9_Y181_H184Y_YF]	0.505
SGADSYEMEED [EGFR_Y316_C311S]	0.625
LDFNEYVRDLN [HPRT1_Y198_F199V_YF]	0.674
HLRAGYIIPLQ [GAA_Y822]	0.417
DQVEQYNKELE [LMNA_Y259_K260N]	0.558

Field request: phosphorylation enrichment | item: GYRVYYTPDSR [PTPRF_Y451]
1.24

Record: CTTIRYNFMCN [TP53_Y234_H233R_YF]
0.521

Record: IDDNEYAFLKA [HNF4A_Y286_YF]
0.8

Record: FQKNVYSEELR [LMNA_Y211_I210V]
0.613

Record: PINEPYGDDMD [JUP_Y693]
1.03

Record: EQKKYSNAMKK [SCN5A_Y1495_Y1495S]
0.322

Record: FSALDYKIFYY [WDPCP_Y210_L205F]
0.613

Record: ALAAPYVLFPS [CEFIP_Y1332_G1337S_YF]
0.578

Record: RRIHNYRGHLW [VHL_Y112_S111N]
0.481

Record: DRFDNYIEKVR [DES_Y122_A120D]
0.432

Record: WFKKFYDANFD [MAPRE2_Y158_YF]
0.37

Record: SESSYYKSLNL [NGEF_Y289_A286S]
0.657

Record: SGSFRYGSSFE [SELE_Y390_C394F]
0.526

Record: DTYDPYLDVAL [USP36_Y268]
1.19

Record: VVTFSYKPAGN [RBL2_Y544_P547A]
0.395

Record: AFSTVYKGLWI [EGFR_Y727_G724S]
0.433

Record: QEIATYRRLRE [KRT17_Y384_L388R]
0.61

====

Below: a set of entries, each annotated with reported phosphorylation enrichment.
- study-target: Jak2 (UniProt O60674)
- Sequence (O60674 whole entry, looked up): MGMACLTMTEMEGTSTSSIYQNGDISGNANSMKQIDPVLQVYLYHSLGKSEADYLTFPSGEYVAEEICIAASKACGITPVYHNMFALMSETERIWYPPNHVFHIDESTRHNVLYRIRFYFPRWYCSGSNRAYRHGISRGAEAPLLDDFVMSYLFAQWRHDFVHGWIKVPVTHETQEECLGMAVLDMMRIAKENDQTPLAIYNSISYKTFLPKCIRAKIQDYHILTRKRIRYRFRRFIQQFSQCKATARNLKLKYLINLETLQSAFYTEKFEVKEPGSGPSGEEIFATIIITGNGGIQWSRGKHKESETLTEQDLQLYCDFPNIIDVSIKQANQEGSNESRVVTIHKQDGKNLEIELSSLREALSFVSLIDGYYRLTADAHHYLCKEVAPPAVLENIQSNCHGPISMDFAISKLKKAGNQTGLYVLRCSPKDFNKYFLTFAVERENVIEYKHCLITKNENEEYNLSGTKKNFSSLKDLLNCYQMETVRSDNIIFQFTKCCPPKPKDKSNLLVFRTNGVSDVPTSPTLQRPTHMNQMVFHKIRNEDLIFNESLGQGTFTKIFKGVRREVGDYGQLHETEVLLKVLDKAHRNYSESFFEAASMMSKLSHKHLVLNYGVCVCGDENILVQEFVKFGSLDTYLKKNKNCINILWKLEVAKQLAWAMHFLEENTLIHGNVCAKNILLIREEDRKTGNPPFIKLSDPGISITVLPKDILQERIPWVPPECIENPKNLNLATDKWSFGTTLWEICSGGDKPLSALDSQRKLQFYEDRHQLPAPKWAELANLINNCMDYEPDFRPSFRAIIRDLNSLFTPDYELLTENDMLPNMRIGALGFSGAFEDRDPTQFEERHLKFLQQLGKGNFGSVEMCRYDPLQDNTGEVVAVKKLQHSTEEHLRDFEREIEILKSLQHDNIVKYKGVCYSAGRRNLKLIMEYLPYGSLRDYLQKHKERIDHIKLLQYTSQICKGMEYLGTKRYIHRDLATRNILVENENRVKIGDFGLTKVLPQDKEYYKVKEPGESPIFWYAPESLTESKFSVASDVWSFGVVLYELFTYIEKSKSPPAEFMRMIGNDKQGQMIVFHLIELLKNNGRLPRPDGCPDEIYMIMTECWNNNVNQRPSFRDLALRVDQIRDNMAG
- assay-text: phosphorylation enrichment, bacterial display (enrichment ratio); higher = better substrate or ligand; peptides without Tyr show the background
Form: value (number only, do not type unit).

Please review the entries below; each comes with its answer.
sequence-chain	phosphorylation enrichment
HGEAYYSEVKA [PAK5_Y182_P187A]	1.98
FQQLFYLLQIN [IQGAP2_Y890_T894I_YF]	1.47
LITSVYGCSRQ [TMPRSS6_Y290]	1.24
PLQKIYNFNVL [SLC4A1_Y553_T552I_YF]	1.19
QMVGMYASFYM [AVPR2_Y124_S127F]	1.79
EPNSRYTFKLE [USH2A_Y3745_YF]	0.76

Field request: phosphorylation enrichment | item: MSLRSYGSREG [APC_Y96]
0.451

Record: DEEYEYMNRRR [ERBB3_Y1199]
0.93

Record: GFRVFYTPDSR [PTPRF_Y451_YF]
1.03

Record: RASGIYYVPKG [APBB1IP_Y340]
4.09

Record: CERFSYFGMKA [SLC15A2_Y60_YF]
2.66

Record: KLFIEYPTGSG [IRF2BPL_Y423]
0.653

Record: FIGCIYLFLTK [GARS1_Y414_R412C_YF]
0.792

Record: RLFARYFQGDL [PDK3_Y337_YF]
0.545

====

- Tested on: AncSZ
- assay-text: phosphorylation enrichment, bacterial display (enrichment ratio); higher = better substrate or ligand; peptides without Tyr show the background
outcome-measure: phosphorylation enrichment

Please review the entries below; each comes with its answer.
sequence-chain	study-target	phosphorylation enrichment
PSFSEYASVQV [SIRPA_Y496]	AncSZ	1.11
REENGYNTYAS [FGF10_Y161_I156R]	AncSZ	1.22
SNPAYYVLEGV [INPPL1_Y987_N982S]	AncSZ	1
DLDTDYGSGFP [RNASEH2A_Y206_YF]	AncSZ	1.22
RASGIYYVPKG [APBB1IP_Y340]	AncSZ	1.39
ECKASCPGKIT [PRSS3_Y232_Y232C]	AncSZ	0.461
VKANTYEKYWP [GATM_Y100]	AncSZ	0.785
EIKLAYRRRPP [GRIN2B_Y1109_E1106K]	AncSZ	0.735
RFFTTYDTNGR [CLCA1_Y665_YF]	AncSZ	1.08
RNFVHYVQGLK [VWF_Y1400_R1399H]	AncSZ	0.875

State its phosphorylation enrichment on AncSZ: DVSKEYGHLLP [HRC_Y99]
0.852

Record: QSVEPYTKQQL [STAT3_Y640]
0.715

====

- study-target: Fes (UniProt P07332)
- assay-text: phosphorylation enrichment, bacterial display (enrichment ratio); higher = better substrate or ligand; peptides without Tyr show the background
outcome-measure: phosphorylation enrichment
Form: value (number only, do not type unit).

Please review the entries below; each comes with its answer.
sequence-chain	phosphorylation enrichment
GDNNIYVTKII [DLG1_Y349_S347N]	0.991
TFRPPYFHRNC [HGD_Y333_YF]	0.869
EPSVPYRGTVF [GLI3_Y104]	0.698

State its phosphorylation enrichment on Fes (UniProt P07332): DASAVYLHDFQ [PLCG2_Y242]
1.31

Record: VDLSKCITTIA [FAS_Y232_Y232C]
1.01

Record: FADIAYNFHHG [PAH_Y166_R169H_YF]
0.725

Record: PVDGEYFTLQI [TP53_Y327_L323V]
1.86

Record: FFWDGYMPRQF [GSS_Y270_R267W_YF]
1.19

Record: WFKKFYDANFD [MAPRE2_Y158_YF]
1.28

Record: FGTAQYCCRMG [LRRK2_Y2023_I2020T_YF]
0.693

Record: QELRRYLKSSV [MICA_Y194_G198S]
0.6

Record: AHLTEYLSTHF [UQCRC1_Y219_D215H_YF]
0.915

Record: EPFEVYRIVPE [IRF8_Y110_K108E_YF]
1.03

Record: ADYPDYKYRPR [SOX11_Y116]
0.718

====

- System: c-Abl (mouse)
- assay-text: phosphorylation enrichment, bacterial display (enrichment ratio); higher = better substrate or ligand; peptides without Tyr show the background
Decision: phosphorylation enrichment compared against 0.6; not below it gives Met, below it gives Not met.

Worked set:
sequence-chain	cat
WGTPEYDSVVA [MAP1A_Y1883_A1881P]	Met
IDSTPYGQWYE [RPS8_Y109_R110G]	Met
TVVGLYQKSSL [MYH7_Y609]	Met
PVRIAYDRPRG [SUGP2_Y985]	Met

Is phosphorylation enrichment at least 0.6? Consider REVPVYTDSEP [FAM120B_Y368]
Met

Reference source for all entries: the supplement of paper PMC10065799
